// data source = PubChem BioAssay (NCI)

Tested on: NCI-H522 lung
test-details: NCI-60 one-dose screen, 48 h (100 = growth as untreated, 0 = no growth, -100 = all killed)
experimental-context: 10 µM unless noted
The panel holds about 83,000 compounds, 20% with a hit somewhere; the sample as a whole holds those more often.
growth listing for selected molecules.
metric-name: growth (%)

molecule	experimental-value
COc1ccc(C2CC(=O)c3c(O)c(OC)c(OC)c(OC)c3O2)c(O)c1 (centres undefined)	12
CO/C=C/C(=O)c1cc2cnc3c(=N)cc(NC(=O)C(C)C)c([nH]1)c23	23.8
CCOc1cccc(/C=N/NC(=O)c2ccccc2Nc2ccnc(C(F)(F)F)c2)c1O	16.6
c1ccc2c(c1)CCN(NCCN1CCCC1)C2	91.3
Cc1ccc(NC(=O)Nc2ccc(Nc3ncnc4sc5c(c34)CCOC5)cc2)cc1Cl	60.9
COc1ccc(COc2cc3oc(=O)c4cc(C(C)O)ccc4c3cc2OC)cc1 (centres undefined)	35.1
COc1cc(C2CC(c3ccc(Cl)cc3)=NN2c2ccc(Cl)cc2)cc(OC)c1OC (centres undefined)	88.9
CC(C)=CCc1cc2c(cc1O)C1=C(C(=O)C3=C(C1=O)S(=O)(=O)CCN3)C(C=C(C)C)O2 (centres undefined)	-50.8
COc1cc2ncnc3c2cc1OCCCCCN(C)Cc1ccc(Br)cc1N3	-9.44
COc1c(OCCCN2CCOCC2)ccc2c3n(c(=NC(=O)c4cnc(N)nc4)nc12)CCN3	9.59
O=c1nc2c(-c3nc4ccccc4s3)n[nH]n2c2sc3c(c12)CCCC3	99.9
Clc1ccc(Nc2nccc(Nc3ccc4[nH]ncc4c3)n2)cc1	20.8
Cc1cccc(Cl)c1NC(=O)c1cnc(Nc2cc(N3CCOCC3)cc(N3CCOCC3)c2)s1	-9.13
C#Cc1cccc(Nc2ncnc3cc(OC)c(OCCCCCCC(=O)NO)cc23)c1	-58.2
C[C@@H](N)c1ccc(C(=O)Nc2ccnc3[nH]ccc23)cc1	11
Cc1cc2c(-c3nc4ccccn4c3N)c(O)c(O)cc2c(O)c1-c1c(C)cc2c(-c3nc4ccccn4c3N)c(O)c(O)cc2c1O	-3.16
C=C1CC[C@@H]2[C@](C)(COC(C)=O)[C@H](OC(C)=O)CC[C@@]2(C)[C@@H]1C/C=C1/C(=O)OC[C@H]1OC(C)=O	-41.6
CCN(CCO)CCCOc1ccc2c(Nc3cc(CC(=O)Nc4cccc(F)c4)[nH]n3)ncnc2c1	22.9
CN(C[C@@H]1COCCO1)S(=O)(=O)Nc1ccc2ccc3ncc(-c4cnn(C)c4)cc3c(=O)c2c1	11.2
COc1cnc2c(c1)C(=O)c1c-2n(CCCNC2=NCCS2)c(=O)c2cc(Cl)ccc12	-64.7
C=CCN1C(=O)c2cccc3c(-c4ccc5c(c4)ncn5C4CCCCC4)ccc(c23)C1=O	52
O=c1[nH]ccc2c(S(=O)(=O)N3CCCNCC3)cccc12	17.3
Cc1cc(Nc2nc(N[C@@H](C)c3ncc(F)cn3)ncc2Cl)n[nH]1	68.3
C[C@@H]1COC(Nc2ccc3ncnc(Nc4ccc(OCc5nccs5)c(Cl)c4)c3c2)=N1	2.8
C[C@@H](NC(=O)c1ncnc(N)c1Cl)c1ncc(C(=O)Nc2cc(C(F)(F)F)c(Cl)cn2)s1	46
CCN1CCN(c2nc(C)cc(N(CCNc3ccnc4cc(Cl)ccc34)Cc3ccc4c(c3)OCO4)n2)CC1	-0.151
COc1cnc2c(c1)C(=O)c1c-2n(CCCN2CCC(N)CC2)c(=O)c2cc([N+](=O)[O-])ccc12	42.2
CCn1cc(-c2ccnc3[nH]c(-c4cccc(CN(C)C)c4)cc23)c(-c2ccc(NC(=O)N(C)C)cc2)n1	6.18
NN1C(=O)CSC1=S	73.3
